Tested on: CAL-62 (Thyroid Gland Carcinoma)
run description: combination Emax (second highest fraction inhibited in the dose matrix, 72 h); higher = more inhibition; extreme values may be limits of the assay
Exercise: state measured combination Emax for each of the compounds provided.
One number for each entry.

INSERT INTO results (compound, assay_value) VALUES
  ('COc1cccc(OCCCN)c1-c1cc(Nc2cnc(C#N)cn2)n[nH]1 [Prexasertib] + C[C@@H]1COCCN1C2=NC(=NC(=C2)C3(CC3)[S@](=N)(=O)C)C4=C5C=CNC5=NC=C4 [AZD6738] (first compound max 1 µM, 7x7, partner max 10 µM)', 0.785);

# ---- query compound ----
// combination Emax value for CC1(C)CCC(CN2CCN(c3ccc(C(=O)NS(=O)(=O)c4ccc(NCC5CCOCC5)c([N+](=O)[O-])c4)c(Oc4cnc5[nH]ccc5c4)c3)CC2)=C(c2ccc(Cl)cc2)C1 [Venetoclax] + CCN(CCO)CCCOc1ccc2c(Nc3cc(CC(=O)Nc4cccc(F)c4)[nH]n3)ncnc2c1 [AZD2811] (first compound max 1 µM, 7x7, partner max 1 µM) : 0.252

----------
Tested on: RCM-1 (Colorectal Carcinoma);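 note: after 72 h of two-drug dosing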
run description: Bliss excess, mean over the matrix (fraction); higher = more synergy
Exercise: state measured Bliss excess for each of the compounds provided.
One number for each entry.

As a guide, the following entries are already answered.
INSERT INTO assay_data (compound, endpoint, assay_value) VALUES
  ('Cc1c2c(nn1C)CSCc1cc(n(C)n1)CSc1cc(c3ccccc3c1)OCCCc1c(C(=O)O)n(C)c3c-2c(Cl)ccc13 [AZD5991] + Cn1cnc2c(F)c(Nc3ccc(Br)cc3Cl)c(C(=O)NOCCO)cc21 [Selumetinib] (first compound max 1 µM, 7x7, partner max 3 µM)', 'Bliss excess', 0.0025),
  ('Cc1cc2ncnn2cc1Nc1ncc2c(n1)n(C1CCOCC1)c(=O)n2C [AZD7648] + CCN(CCO)CCCOc1ccc2c(Nc3cc(CC(=O)Nc4cccc(F)c4)[nH]n3)ncnc2c1 [AZD2811] (first compound max 10 µM, 7x7, partner max 1 µM)', 'Bliss excess', -0.032),
  ('Cc1c2c(nn1C)CSCc1cc(n(C)n1)CSc1cc(c3ccccc3c1)OCCCc1c(C(=O)O)n(C)c3c-2c(Cl)ccc13 [AZD5991] + C1CN(CCC1(C(=O)N[C@@H](CCO)C2=CC=C(C=C2)Cl)N)C3=NC=NC4=C3C=CN4 [Capivasertib] (first compound max 1 µM, 7x7, partner max 3 µM)', 'Bliss excess', 0.0005),
  ('CN(CCO)CC[C@H](CSc1ccccc1)Nc1ccc(S(=O)(=O)NC(=O)c2ccc(N3CCC([C@@H](O)c4ccccc4-c4ccc(Cl)cc4)CC3)cc2)cc1S(=O)(=O)C(F)(F)F [AZD4320] + CS(=O)(=O)CCNCc1ccc(-c2ccc3ncnc(Nc4ccc(OCc5cccc(F)c5)c(Cl)c4)c3c2)o1 [Lapatinib] (first compound max 1 µM, 7x7, partner max 10 µM)', 'Bliss excess', 0.0202),
  ('C=CCn1c(=O)c2cnc(Nc3ccc(N4CCN(C)CC4)cc3)nc2n1-c1cccc(C(C)(C)O)n1 [AZD1775] + C1CN(CCC1(C(=O)N[C@@H](CCO)C2=CC=C(C=C2)Cl)N)C3=NC=NC4=C3C=CN4 [Capivasertib] (first compound max 3 µM, partner max 3 µM)', 'Bliss excess', 0.0141);

For each listed entry, give its Bliss excess.
1. N#Cc1cnc(Nc2cc(NC[C@H]3CNCCO3)c(C(F)(F)F)cn2)cn1 [SRA737] + CCc1c2c(nc3ccc(O)cc13)-c1cc3c(c(=O)n1C2)COC(=O)[C@]3(O)CC [SN-38] (first compound max 10 µM, 7x7, partner max 0.3 µM)
2. O=C(c1cc(Cc2n[nH]c(=O)c3ccccc23)ccc1F)N1CCN(C(=O)C2CC2)CC1 [Olaparib] + CN(CC[C@H](CSC1=CC=CC=C1)NC2=C(C=C(C=C2)S(=O)(=O)NC(=O)C3=CC=C(C=C3)N4CCC(CC4)[C@H](C5=CC=CC=C5C6=CC=C(C=C6)Cl)O)S(=O)(=O)C(F)(F)F)CCO [AZD4320] (first compound max 10 µM, 7x7, partner max 1 µM)

stdout:
1: -0.0427; 2: -0.0431

Entry source: the supplement of paper PMC11061612
